Origin of measurements: PubChem BioAssay AID2289

test: qHTS Assay for Modulators of miRNAs and/or Inhibitors of miR-21; settings: HeLa miR-21-FLuc reporter, luciferase luminescence, 48 h; actives lower the signal; also: potency is read from the fitted curve at half-maximal effect; nearly all actives have a fitted effect of over 55% in size
Among all 340,000 compounds or so, about 3,300 (0.97%) were called active. Inconclusive results (about 9%) are left out. The list shows a part of the results.
Field: Potency. Provide a value for each of the compounds that follow.

# compound O=C1CC(c2ccc3c(c2)OCCO3)Oc2ccc([N+](=O)[O-])cc21 (stereo unspecified) ; its Potency = 0.261 µM (active)

Lookup result for Cc1c(C(=O)OC2CCC(C)CC2)[nH]c2c1C(=O)CCC2 (stereo unspecified) ; measured Potency: 0.464 µM (active)

Reported Potency of Cc1ccc2c(C)c(C(=O)N(C)C(C)c3ccon3)oc2c1C (stereo unspecified) : 16.5 µM (active)

Noted for COC(=O)C1C(=O)c2c([nH]c(C(=O)OC3CCCC3)c2C)CC1C (stereo unspecified) : its Potency reads 1.47 µM (active)

According to the records, this compound Cc1cc(Cl)c2oc(C(=O)N(C)C(C)c3ccccn3)c(C)c2c1 (stereo unspecified) displays Potency of 14.7 µM (active)

The measured Potency associated with CC(=O)N1c2ccccc2Oc2cc3ccccc3cc21 reads 9.27 µM (active)

The reported value for Cc1ccc(-c2nc3ccccc3s2)cc1NC(=S)NC(=O)/C=C/c1ccco1 in terms of Potency is 10.4 µM (active)

Quick note, Potency for Clc1ccc(COn2nnc3ccccc32)c(Cl)c1 landed at 2.61 µM (active)

Measured Potency of COC(=O)C1C(=O)C=C(Nc2ccc(F)cc2)CC1c1ccc(OC)cc1 (stereo unspecified) : 10.4 µM (active)

Potency measured on C=CCOc1ccc2c(OC)c3ccoc3nc2c1OC = 13.1 µM (active)

Short answer for CN1CCc2c(sc(/N=C/c3cc(Cl)ccc3O)c2C#N)C1 : Potency was 6.56 µM (active)
